Reported pIC50 values for a set of molecules
# measured target: Human Recombinant Gelatinase A (MMP-2) (Homo sapiens)
# Sequence (P08253 110-660): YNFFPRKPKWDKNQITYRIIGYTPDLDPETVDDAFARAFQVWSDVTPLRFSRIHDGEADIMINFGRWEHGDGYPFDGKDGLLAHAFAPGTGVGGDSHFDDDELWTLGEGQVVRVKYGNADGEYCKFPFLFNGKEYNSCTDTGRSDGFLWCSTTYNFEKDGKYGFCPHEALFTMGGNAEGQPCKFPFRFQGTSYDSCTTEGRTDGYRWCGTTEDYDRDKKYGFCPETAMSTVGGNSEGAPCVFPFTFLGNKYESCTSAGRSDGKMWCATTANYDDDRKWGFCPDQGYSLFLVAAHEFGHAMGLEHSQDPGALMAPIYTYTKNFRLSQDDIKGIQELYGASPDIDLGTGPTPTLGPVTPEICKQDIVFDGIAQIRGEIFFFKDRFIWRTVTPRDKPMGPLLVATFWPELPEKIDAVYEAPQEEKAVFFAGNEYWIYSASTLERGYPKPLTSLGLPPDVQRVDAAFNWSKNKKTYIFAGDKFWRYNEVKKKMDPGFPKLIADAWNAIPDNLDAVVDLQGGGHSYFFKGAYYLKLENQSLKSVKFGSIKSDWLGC
# test: P218 quenched fluorescence assay (Microfluorometric Profiling Assay), MMP-2
# test settings: 6 μM P218, pH 6.5, 25 min at 37° C.; read-out: MMP-2 Fluorogenic IC50
pIC50: −log10 of the molar value.
attribute measured: pIC50

CCCCCCCCCC(=O)CC(CCN1C(=O)c2ccccc2C1=O)C(=O)O (stereo not drawn) [II]
5.73
CCCCCCCCCCCC(=O)CC(CCN1C(=O)c2ccccc2C1=O)C(=O)O (stereo not drawn) [III]
6.12
CCCCCCCCCCCCCC(=O)CC(CCN1C(=O)c2ccccc2C1=O)C(=O)O (stereo not drawn) [V]
5.96
CCCCCCCCCCC(=O)CC(CCN1C(=O)c2ccccc2C1=O)C(=O)O (stereo not drawn) [I]
5.89
CCCCCCCCCCCCC(=O)CC(CCN1C(=O)c2ccccc2C1=O)C(=O)O (stereo not drawn) [IV]
6.29
CCCCCCCCCCCCCCC(=O)CC(CCN1C(=O)c2ccccc2C1=O)C(=O)O (stereo not drawn) [VI]
5.99

###

# measured target: Recombinant Human CHO Stromelysin (MMP-3) (Homo sapiens)
# Sequence (P08254 100-477): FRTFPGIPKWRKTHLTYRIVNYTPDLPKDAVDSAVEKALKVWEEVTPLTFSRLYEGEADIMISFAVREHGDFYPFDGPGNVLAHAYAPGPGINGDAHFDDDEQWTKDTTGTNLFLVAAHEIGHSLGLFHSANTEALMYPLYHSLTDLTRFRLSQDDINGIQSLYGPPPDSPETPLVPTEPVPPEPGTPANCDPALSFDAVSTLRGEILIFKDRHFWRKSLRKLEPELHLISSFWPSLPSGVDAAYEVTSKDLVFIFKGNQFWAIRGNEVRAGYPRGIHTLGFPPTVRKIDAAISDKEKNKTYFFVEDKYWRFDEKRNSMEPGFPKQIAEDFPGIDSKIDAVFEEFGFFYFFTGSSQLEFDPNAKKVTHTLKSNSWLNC
# test: P218 quenched fluorescence assay (Microfluorometric Profiling Assay), MMP-3
# test settings: 6 μM P218, pH 6.5, 25 min at 37° C.; read-out: MMP-3 Fluorogenic IC50
pIC50: −log10 of the molar value.
attribute measured: pIC50

CCCCCCCCCCCCC(=O)CC(CCN1C(=O)c2ccccc2C1=O)C(=O)O (centres unmarked)
5.62
CCCCCCCCCCCCCC(=O)CC(CCN1C(=O)c2ccccc2C1=O)C(=O)O (centres unmarked)
5.47
CCCCCCCCCCCC(=O)CC(CCN1C(=O)c2ccccc2C1=O)C(=O)O (centres unmarked)
5.53
CCCCCCCCCC(=O)CC(CCN1C(=O)c2ccccc2C1=O)C(=O)O (centres unmarked)
5.30
CCCCCCCCCCC(=O)CC(CCN1C(=O)c2ccccc2C1=O)C(=O)O (centres unmarked)
5.32

###

# measured target: Human Recombinant Gelatinase B (MMP-9) (Homo sapiens)
# Sequence (P14780 107-707 limits assumed): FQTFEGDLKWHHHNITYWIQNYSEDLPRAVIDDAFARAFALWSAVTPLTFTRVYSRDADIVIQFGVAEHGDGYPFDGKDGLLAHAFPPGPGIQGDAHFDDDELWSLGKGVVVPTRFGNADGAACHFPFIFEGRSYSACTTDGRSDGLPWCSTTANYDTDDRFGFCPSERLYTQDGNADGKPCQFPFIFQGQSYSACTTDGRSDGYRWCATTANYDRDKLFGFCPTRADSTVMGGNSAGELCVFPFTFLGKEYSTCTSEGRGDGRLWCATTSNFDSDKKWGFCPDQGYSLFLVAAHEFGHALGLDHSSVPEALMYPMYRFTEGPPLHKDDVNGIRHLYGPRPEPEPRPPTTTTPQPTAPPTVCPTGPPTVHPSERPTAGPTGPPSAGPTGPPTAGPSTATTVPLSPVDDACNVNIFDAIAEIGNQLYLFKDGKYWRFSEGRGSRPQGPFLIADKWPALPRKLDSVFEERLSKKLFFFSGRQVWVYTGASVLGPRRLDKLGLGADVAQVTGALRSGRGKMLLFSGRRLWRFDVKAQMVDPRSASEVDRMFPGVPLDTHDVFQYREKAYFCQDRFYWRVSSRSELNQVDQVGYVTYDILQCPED
# test: P218 quenched fluorescence assay (Microfluorometric Profiling Assay), MMP-9
# test settings: 6 μM P218, pH 6.5, 25 min at 37° C.; read-out: MMP-9 Fluorogenic IC50
pIC50: −log10 of the molar value.
attribute measured: pIC50

CCCCCCCCCC(=O)CC(CCN1C(=O)c2ccccc2C1=O)C(=O)O (stereo not drawn)
6.62
CCCCCCCCCCC(=O)CC(CCN1C(=O)c2ccccc2C1=O)C(=O)O (stereo not drawn)
6.92
CCCCCCCCCCCC(=O)CC(CCN1C(=O)c2ccccc2C1=O)C(=O)O (stereo not drawn)
7.04
CCCCCCCCCCCCCC(=O)CC(CCN1C(=O)c2ccccc2C1=O)C(=O)O (stereo not drawn)
6.82
CCCCCCCCCCCCCCC(=O)CC(CCN1C(=O)c2ccccc2C1=O)C(=O)O (stereo not drawn)
6.63
CCCCCCCCCCCCC(=O)CC(CCN1C(=O)c2ccccc2C1=O)C(=O)O (stereo not drawn)
6.81
